Give measured IC50 (pVNT, GFP-positive infected cells) for each item. Keep answers brief.
tested_system: SARS-CoV-2 spike protein (wild-type) on VSV pseudovirus (SARS-CoV-2), P0DTC2
One number for each entry, in µg/ml.

For orientation, consider the following solved cases.
P043.A.00092.C12 (antibody) heavy chain: QEELKETGGGLVQPGGSLTLSCKASGFDFSSYYMSWVRQAPGKGLEWIGVIYASKGSTDYASWVNGRFTISSDNAQNTVDLQMNSLTAADTATYYCARSKRFYTYGYAGYAYAHYYYGMDLWGPGTLVTVSS light chain: AIQMTQSPSSLAASVGDTVTITCKASEDIGYGLNWYQQKLGIAPKLLIYGADTLESGVPSRFSGSGSETDYTLTISSVQAEDAGIYYCQQGYSTPLTFGAGTKVEIK :: 0.31
P043.A.00017.E04 (antibody) heavy chain: QSVEESGGRLVTPGTPLTLTCTVSGFSLNNYAMNWVRQAPGKGLEWIGIISSSGNTYYANWAKGRFTISKTSTTVDLKITSPTTEDTATYFCARDSYPGYSPYYGMDPWGPGTLVTVSS light chain: AIQMTQSPSSLAASVGDTVTITCKASEDIAYGLNWYQQKLGITPKLLIYGANTLESGVPSRFSGSGSETHYTLTISSVQAEDAGIYYCQQGYNTPPTFGAGTKVEIK :: 1.19
P043.A.00097.B02 (antibody) heavy chain: QELVESGGGLVQAGESLKLSCKASGIDFSSYGISWVRQAPGKGLEWIAYIYPGFGITNYANSVKGRFTISSDNAQNTVFLQMTSLTASDTATYFCTRAYASSSGYYIHYFNLWGPGTLVTVSS light chain: AIQMTQSPSSLAASVGDTVTITCKASEDIGYGLNWYQQKLGIAPKLLIYGANTLESGVPSRFSGSGSETDYTLTISSVQAEDAGIYYCQQAYSTPLTFGAGTKVEIK :: 7.84
P043.A.00024.C11 (protein sample ID 451) (antibody, V domains shown) VH: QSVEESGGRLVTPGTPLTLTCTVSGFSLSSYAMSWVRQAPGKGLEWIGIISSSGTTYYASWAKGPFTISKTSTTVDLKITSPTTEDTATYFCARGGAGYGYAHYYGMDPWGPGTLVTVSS VL: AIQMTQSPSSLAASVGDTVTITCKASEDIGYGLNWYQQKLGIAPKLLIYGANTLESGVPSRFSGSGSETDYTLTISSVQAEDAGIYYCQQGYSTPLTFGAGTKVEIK :: 4.74

input: Name the reported IC50 (pVNT, GFP-positive infected cells) value associated with the binder P043.A.00047.H08 (protein sample ID 447) (antibody, V domains shown) VH: QSLEESGGDLVKPGASLTLTCTASGFSFSSDGMCWVRQAPGKGLEWIACIAAGSSGSTYYATWAQGRFTISKSSSTTVTLQMTSLTAADTATYFCAGEDYTGNNYYALWGPGTLVTVSS VL: AIDMTQTPSPVSAVVGDTVTINCQASENIYSFLAWYQQKPGQPPKLLIYFASKLASGVPSRFKGSGSGTQFTLTISDVHSDDAAIYYCQQTGTYSDADNTFGGGTEVVVK
output: 3.9
